Target: PI3K beta (Homo sapiens, UniProt P42338)
Construct: for the full-length p110-b subunit are generated and fused by overlapping PCR; p85(iSH2) fusion partner (see partner chain) (N); His tag (C); Tn5 (Trichoplusia ni) or TiniPro insect cells
Sequence (P42338 with tags, fused parts or gaps limits assumed): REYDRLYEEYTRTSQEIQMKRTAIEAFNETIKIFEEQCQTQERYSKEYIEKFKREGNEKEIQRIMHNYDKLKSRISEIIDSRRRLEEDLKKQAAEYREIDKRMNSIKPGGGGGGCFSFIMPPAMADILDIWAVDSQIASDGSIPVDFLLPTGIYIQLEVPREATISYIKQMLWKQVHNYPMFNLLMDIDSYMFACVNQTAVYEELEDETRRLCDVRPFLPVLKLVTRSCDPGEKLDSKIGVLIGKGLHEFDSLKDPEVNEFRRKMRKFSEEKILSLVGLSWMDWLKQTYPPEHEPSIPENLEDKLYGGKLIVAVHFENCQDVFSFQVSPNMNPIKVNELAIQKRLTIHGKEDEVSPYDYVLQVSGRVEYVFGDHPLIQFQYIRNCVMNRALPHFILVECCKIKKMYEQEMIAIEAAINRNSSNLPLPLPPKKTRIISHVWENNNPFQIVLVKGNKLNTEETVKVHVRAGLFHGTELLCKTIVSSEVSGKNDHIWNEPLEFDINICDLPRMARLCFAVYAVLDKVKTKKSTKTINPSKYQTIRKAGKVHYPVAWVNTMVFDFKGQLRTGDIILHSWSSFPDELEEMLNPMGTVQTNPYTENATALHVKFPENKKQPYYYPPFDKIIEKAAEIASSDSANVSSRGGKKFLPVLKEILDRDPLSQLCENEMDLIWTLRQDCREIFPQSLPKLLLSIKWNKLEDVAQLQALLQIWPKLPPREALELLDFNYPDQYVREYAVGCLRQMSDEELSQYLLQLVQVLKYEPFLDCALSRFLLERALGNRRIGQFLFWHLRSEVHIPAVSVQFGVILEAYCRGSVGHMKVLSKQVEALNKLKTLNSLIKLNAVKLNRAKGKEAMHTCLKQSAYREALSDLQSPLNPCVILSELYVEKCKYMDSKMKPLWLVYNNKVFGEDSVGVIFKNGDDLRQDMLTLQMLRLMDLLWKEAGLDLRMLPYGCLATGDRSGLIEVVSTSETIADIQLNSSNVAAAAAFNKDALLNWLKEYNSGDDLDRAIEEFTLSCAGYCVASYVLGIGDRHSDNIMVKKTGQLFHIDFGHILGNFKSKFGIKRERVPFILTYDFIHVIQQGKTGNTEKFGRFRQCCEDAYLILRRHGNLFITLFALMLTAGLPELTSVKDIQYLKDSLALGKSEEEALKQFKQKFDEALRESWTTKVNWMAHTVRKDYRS
Test: PI3K beta kinase assay (Kinase-Glo luminescence)
Procedure: In a more preferred assay, the kinase reaction is performed in a final volume of 10 μL per well of a low volume non binding CORNING, 384 well black plate (Cat. No. #3676). The final concentrations of ATP and phosphatidyl inositol (PI) in the assay are 1 μM and 10 μg/mL respectively. […] IC50 is determined by a four parameter curve fitting routine that comes along with “excel fit”. […] Alternatively, IC50 values are calculated using idbsXLfit model 204, which is a 4 parameter logistic model.
pIC50: −log10 of the molar value.
property.name: pIC50

compound: COc1ncc(-c2ccc3ncc4c(c3c2)n(-c2cn(C)nc2C)c(=O)n4C)c(OC)n1 [Example 234.2]
property.name: pIC50
numeric.readout: 7.60
--
compound: CNc1cc(-c2ccc3ncc4c(c3c2)n(-c2c(C)nn(C)c2C)c(=O)n4C)cnc1CO [Example 158.4]
property.name: pIC50
numeric.readout: 6.95
--
compound: Cc1nn(C)cc1-n1c(=O)n(C)c2cnc3ccc(-c4cccnc4)cc3c21 [Example 10.2]
property.name: pIC50
numeric.readout: 7.07
--
compound: Cn1cc(-n2c(=O)n(C)c3cnc4ccc(-c5ccc(CO)nc5)cc4c32)c(Cl)n1 [Example 16.5]
property.name: pIC50
numeric.readout: 7.55
--
compound: Cc1nn(C)cc1-n1c(=O)n(C)c2cnc3ccc(-c4ccc(-c5ncc[nH]5)cc4)cc3c21 [Example 77]
property.name: pIC50
numeric.readout: 7.62

a. Cc1nn(C)cc1-n1c(=O)n(C)c2cnc3ccc(-c4cccc(S(C)(=O)=O)c4)cc3c21 [Example 40]
b. COCc1ccc(-c2ccc3ncc4c(c3c2)n(-c2cn(C)nc2Cl)c(=O)n4C)cn1 [Example 203]
c. Cc1nn(C)cc1-n1c(=O)n(C)c2cnc3ccc(-c4cncc(OC5CCC5)c4)cc3c21 [Example 60.1]
Please order the records by their reported pIC50, lowest number first. # list labels per requested ordering
b, a, c
